measuredTarget: SARS-CoV-2 Wuhan-Hu-1 RBD (SARS-CoV-2 Wuhan-Hu-1, UniProt P0DTC2)
protocolNotes: BLI
conditionParameters: both partners purified
We label by threshold. Values of Kd strictly beneath 7 nM are YES. Values of 7 nM and up are NO.

Q: Would you kindly verify if Kd of V043 (antibody, V domains shown, IgG; donor BRA15; source: recombinant monoclonal IgG, produced and purified as previously described) VH: QLQLQESGPGLVKPSETLSLTCTVSGGSISSNNYYWGWIRQPPGKGLECIGTIYYSGNTYYNPSLKSRVTISVDTSKNQFSLKLGSVTAADTAVYYCARQQWLRDAFHIWGQGTMVTVSS VL: NFMLTQPHSVSESPGKTVTISCTGSSGSIASNYVQWYQQRPGSAPTIVIYEDNQRPSGVPDRFSGSIDSSSNSASLTISGLKTEDEADYYCQSYDSNIHVVFGGGTKLTVL is strictly less than 7 nM?
A: YES

Q: Would you kindly verify if Kd of V061 (antibody, V domains shown, IgG; donor BRA15; source: recombinant monoclonal IgG, produced and purified as previously described) VH: QVQLVQSGAEVKKPGTSVKVSCKASGYTFKNYGISWVRQAPGQGLEWMGWISAHNGNTNYAQRVQGRVTMTTDTSTSTAYMELRSLRSEDTAVYYCGRESGVASHPGDLDYWGQGTLVTVSS VL: SYELTQPPSVSVSPGQTARITCSGDALPRQYAYWYQQKPGQAPVLLIYKDSERPSGIPERFSGSSSGTTVTLTISGVQAEDEADYYCQSADSSVVFGGGAKLTVL is strictly less than 7 nM?
A: NO

Q: Would you kindly verify if Kd of V033 (antibody, V domains shown, IgG; donor BRA14; source: recombinant monoclonal IgG, produced and purified as previously described) VH: QVQLVQSGAEVKKPGASVKVSCKASGYTFTSYGISWVRQAPGQGLEWMGWISAYNGNTNYAQKLQGRVTMTTDTSTSTAYMELRSLRSDDTAVYYCARGRFCSSTSCYRAAPNYYYYYMDVWGKGTTVTVSS VL: NFMLTQPHSVSESPGKTVTISCTRSSGSIASNYVQWYQQRPGSAPTTVIYEDNQRPSGVPDRFSGSIDSSSNSASLTISGLKTEDEADYYCQSYDSSNPYWVFGGGTKLTVL is strictly less than 7 nM?
A: YES

Q: Would you kindly verify if Kd of V022 (antibody, V domains shown, IgG; donor BRA13; source: recombinant monoclonal IgG, produced and purified as previously described) VH: EVQLVESGGGLVKPGGSLRLSCAASGFTFSSYSMNWVRQAPGKGLEWVSSISSTNNYIYNADSVKGRFTISRDNAKNSLYLQMNSLRAEDTAVYYCARDPAGRYSYGLYYFYYMDVWGKGTTVTVSS VL: QSALTQPASVSGSPGQSITISCTGTSSDVGGYNYVSWYQQRPGKAPKLMIYDVSNRPSGVSDRFSGSKSGNTASLTISGLQAEDEADYYCTSYTSSSSLYVFGTGTKVTVL is strictly less than 7 nM?
A: NO

Q: Would you kindly verify if Kd of V011 (antibody, V domains shown, IgG; donor BRA13; source: recombinant monoclonal IgG, produced and purified as previously described) VH: QVQLVQSGAEVKKPGASVKVSCKASGYIFTSYDINWVRQATGQGLEWMGWMNPNSGNTGYAQKFQGRVTMTRNTSISTAYMELSSLRSEDTAVYYCARASSSLTYYFDYWGQGTLVTVSS VL: SYELTQPPSVSVAPGKTARITCGENNIGSKSVHWYQQKPGQAPVLVVYDDSDRPSGIPERFSGSNSGNTATLTISRVEAGDEADYYCQVWDSSSDPVVFGGGTKLTVL is strictly less than 7 nM?
A: NO

Q: Would you kindly verify if Kd of V015 (antibody, V domains shown, IgG; donor BRA13; source: recombinant monoclonal IgG, produced and purified as previously described) VH: EVQLVESGGGLVQPGGSLRLSCAASGFTFNSYWMSWVRQAPGKGLEWVANIKQDGSEKYYVDSVKGRFTISRDNAKNSLYLQMNSLRAEDTAVYYCARLPTYYSGFDYWGQGTLVTVSS VL: NFMLTQPHSVSESPGKTVTISCTGSSGSIASNYVQWYQQRPGSAPTTVIYEDNQRPSGVPDRFSGSIDSSSNSASLTISGLKTEDEADYYCQSYDSTNRGVVFGGGTKLTVL is strictly less than 7 nM?
A: NO
